Catalogue of inhibition at 2 µM values
TEST SYSTEM: Lyn kinase (human) (Homo sapiens, UniProt P07948)
Construct: purchased Upstate Biotechnology, Lake Placid, N.Y
Sequence (P07948 whole entry): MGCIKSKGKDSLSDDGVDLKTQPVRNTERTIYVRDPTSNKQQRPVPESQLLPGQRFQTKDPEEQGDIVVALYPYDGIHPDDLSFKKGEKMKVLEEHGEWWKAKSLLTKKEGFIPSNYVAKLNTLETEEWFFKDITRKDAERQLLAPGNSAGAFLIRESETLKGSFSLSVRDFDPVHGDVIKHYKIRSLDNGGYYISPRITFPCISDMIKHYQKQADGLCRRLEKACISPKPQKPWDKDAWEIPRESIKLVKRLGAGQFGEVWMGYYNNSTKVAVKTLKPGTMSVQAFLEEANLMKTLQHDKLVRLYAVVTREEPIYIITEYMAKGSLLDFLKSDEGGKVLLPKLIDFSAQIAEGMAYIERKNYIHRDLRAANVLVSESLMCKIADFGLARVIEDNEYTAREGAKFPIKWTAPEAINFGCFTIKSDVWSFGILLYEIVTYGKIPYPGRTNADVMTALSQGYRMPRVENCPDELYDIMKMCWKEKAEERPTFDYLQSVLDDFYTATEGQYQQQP
PROTOCOL TEXT: Lyn Kinase Assay
Format: biochemical
RECORDED CONDITIONS: test concentration of 2 μM
Give the figure together with its unit, number first.

Reference set, count: 2
O=C(Nc1ccccc1)c1sc2ncnc3c2c1NC(=O)N3c1cccc(Br)c1: 32%
COc1ccc(NC(=O)c2sc3ncnc4c3c2NC(=O)N4c2ccc(OCc3ccccn3)c(Cl)c2)cc1OC: 14%

Ask: What does the data say about its inhibition at 2 µM? Entry: COc1cc(N2C(=O)Nc3c(C(=O)Nc4ccc(OC)c(OC)c4)sc4ncnc2c34)c(Cl)cc1Cl
Reply: -11%

Ask: Look at this compound and give its reported inhibition at 2 µM. COc1ccc(N2C(=O)Nc3c(C(=O)Nc4ccc(CCN5CCCCC5)cc4)sc4ncnc2c34)cc1Cl
Reply: 0%
